Molecular target: T1, cynomolgus Hepcidin-25 (cynomolgus, UniProt A7XEI3 60-84, not fully specified)
T1 construct: mature
T1 peptide: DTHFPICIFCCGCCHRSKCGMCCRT
Test: direct ELISA on cynomolgus hep-25, mutein titrated
pKd: −log10 of the molar value.
readout: pKd

[
  {
    "binder": "lipocalin mutein of SEQ ID NO: 2 (designed binder, also called Lcn2 mutein) QDSTSDLIPAPPLSKVPLQQNFQDNQFHGKWYVVGTAGNSILREDKDPQKMWATIYELKEDKSYNVTRVFFEGKKCRYVIETFVPGSQPGEFTLGKIKSAPGGTSILVRVVSTNYNQHAMVFFKVVWQNRELFWITLYGRTKELTSELKENFIRFSKSLGLPENHIVFPVPIDQCIDG",
    "readout": "pKd",
    "recordedMeasurement": 8.50
  },
  {
    "binder": "lipocalin mutein of SEQ ID NO: 6 (designed binder, also called Lcn2 mutein) QDSTSDLIPAPPLSKVPLQQNFQDNQFHGKWYVVGLAGNEILREDKDPLKMWATIYELKEDKSYNVTRVQFGEKKCGYGIETFVPGSQPGEFTLGSIKSVPGGTSRLVRVVSTNYNQHAMVFFKFVWQNREVFWITLYGRTKELTSELKENFIRFSKSLGLPENHIVFPVPIDQCIDG",
    "readout": "pKd",
    "recordedMeasurement": 9.10
  },
  {
    "binder": "lipocalin mutein of SEQ ID NO: 5 (designed binder, also called Lcn2 mutein) QDSTSDLIPAPPLSKVPLQQNFQDNQFHGKWYVVGAAGNSLLREDKDPMKMWATIYELKEDKSYNVTRVNFGGKKCSYLIETFVPGSQPGEFTLGSIKSRPGATSVLVRVVSTNYNQHAMVFFKLVTQNREVFWITLYGRTKELTSELKENFIRFSKSLGLPENHIVFPVPIDQCIDG",
    "readout": "pKd",
    "recordedMeasurement": 8.17
  },
  {
    "binder": "lipocalin mutein of SEQ ID NO: 3 (designed binder, also called Lcn2 mutein) QDSTSDLIPAPPLSKVPLQQNFQDNQFHGKWYVVGVAGNGLLREDKDPLKMHATIYELKEDKSYNVTRVLFVRKKCRYYISTFVPGSQPGEFTLGRIKSEPGRTSFLVRVVSTNYNQHAMVFFKMVWQNREVFWITLYGRTKELTSELKENFIRFSKSLGLPENHIVFPVPIDQCIDG",
    "readout": "pKd",
    "recordedMeasurement": 9.23
  },
  {
    "binder": "lipocalin mutein of SEQ ID NO: 11 (designed binder, also called Lcn2 mutein) QDSTSDLIPAPPLSKVPLQQNFQDNQFHGKWYVVGLAGNEILREDKDPMKMWATIYELKEDKSYNVTIVMFLAKKCEYLFQTFVPGSQPGEFTLGDIKSSPGRTSGLVRVVSTNYNQHAMVFFKVVWQNREVFWITLYGRTKELTSGLKENFIRFSKSLGLPENHIVFPVPIDQCIDG",
    "readout": "pKd",
    "recordedMeasurement": 9.21
  },
  {
    "binder": "lipocalin mutein of SEQ ID NO: 1 (designed binder, also called Lcn2 mutein; hNGAL mutein) QDSTSDLIPAPPLSKVPLQQNFQDNQFHGKWYVVGLAGNEVLREDKDPMKMWATIYELEEDKSYNVTIVMFLAKKCEYLFQTFVPGSQPGEFTLGDIKSSPGRTSGLVRVVSTNYNQHAMVFFKTVWQNREVFWITLYGRTKELTSELKENFIRFSKSLGLPENHIVFPVPIDQCIDG",
    "readout": "pKd",
    "recordedMeasurement": 9.37
  }
]

These entries and their values trace back to patent US20170369542A1.
